B1: Gamma-crystallin S, residues 96 to 176; numbered along this chain, P22914 (parent)
chain: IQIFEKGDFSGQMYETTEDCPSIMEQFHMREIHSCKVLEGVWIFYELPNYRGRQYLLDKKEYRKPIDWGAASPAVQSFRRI

- Variants of: B1
- testName: abundance fitness (aPCA) (normalised: wild type 0, dead -1); higher = more abundant; growth selection in yeast, the domain comes from the species named
- studyConditions: Homo sapiens
Hi, to clarify the labels: Condition met covers abundance fitness from -0.01 upward, Condition not met covers anything below -0.01.

For orientation, consider the following solved cases.
biopolymerSequence	labelValue
IQIFEKGDFSGQMYETTEDCPSIMEQQHMREIHSCKVLEGVWIFYELPNYRGRQYLLDKKEYRKPIDWGAASPAVQSFRRI [F27Q]	Condition met
IQIKEKGDFSGQMYETTEDCPSIMEQFHMREIHSCKVLEGVWIFYELPNYRGRQYLLDKKEYRKPIDWGAASPAVQSFRRI [F4K]	Condition not met
IQIFEKGDFSGQMYETTEDCPSIMEQFHMREIHSCKVLEGVWIFYETPNYRGRQYLLDKKEYRKPIDWGAASPAVQSFRRI [L47T]	Condition not met

Task item: Hello, I need to know if IQIFEKGDFCGQMYETTEDCPSIMEQFHMREIHSCKVLEGVWIFYELPNYRGRQYLLDKKEYRKPIDWGAASPAVQSFRRI [S10C] has measured abundance fitness not below -0.01. Thanks!
Reply: Condition not met

Task item: Here is the next variant: IQIFEKGDFSGQMYETTEDCPSIMEQFHMREIHSCKVLEGVWIFYELRNYRGRQYLLDKKEYRKPIDWGAASPAVQSFRRI [P48R]
Reply: Condition not met
